log10 IC50 reference
# Measured Target: JNK1 (Homo sapiens (Human))
# Assay Protocol: In Vitro JNK1 Assay (TR-FRET, phosphorylation of GST-c-Jun)
# Type: biochemical
# Assay Context: 0.2 nM active JNK1 kinase, 26.7 nM GST-c-Jun, 2 μM ATP, 30 min at room temperature
# Method: Phosphorylation of GST-c-Jun protein (amino acid residues 1-79) was measured as JNK1 activity. […] The reaction buffer contained 50 mM HEPES, pH […], 1 mM DTT, 0.1 mM Na3VO4 and 0.2 mg/mL BSA. […] Time-resolved Fluorescence Resonance Energy Transfer (TR-FRET) signals were measured 1 hr. later on the EnVision reader (Perkin Elmer). Compound potency was assessed at 10 serially diluted concentrations. […]
Measure Name: log10 IC50 (log10 of the value in nM)

# Compound, Measure Name, Readout Value
records = [
    ("COC(=O)c1c(CNC(=O)c2ccc(OC)cc2)c(=O)c2ccc(OC)cc2n1-c1ccccc1 [Example I-164]", "log10 IC50", 1.73),
    ("COC(=O)c1c(CNC(=O)c2ccc(S(N)(=O)=O)cc2)c(=O)c2ccc(Cl)cc2n1-c1ccccc1 [Example I-115]", "log10 IC50", 0.90),
    ("COC(=O)c1c(CNC(=O)c2ccc(-c3cnco3)cc2)c(=O)c2ccc(Cl)cc2n1-c1ccccc1 [Example I-110]", "log10 IC50", 0.60),
    ("O=C(NCc1cn(-c2ccccc2)c2cc(Cl)ccc2c1=O)c1ccc2scnc2c1 [Example I-42]", "log10 IC50", 1.95),
    ("O=C(NCc1cn(-c2ccccc2Cl)c2cc(Cl)ccc2c1=O)c1ccc(-c2cn[nH]c2)nc1 [Example I-102]", "log10 IC50", 2.87),
    ("CN(C)C(=O)c1c(CNC(=O)c2ccc(S(C)(=O)=O)cc2)c(=O)c2ccc(Cl)cc2n1-c1ccccc1 [Example I-19]", "log10 IC50", 2.26),
    ("CN(C)c1ccc(C(=O)NCc2cn(-c3ccccc3)c3cc(Cl)ccc3c2=O)cn1 [Example I-79]", "log10 IC50", 1.74),
]

###

# Tested on: phospho(Ser63)-c-jun in HK-2 cells
# Assay Protocol: Cell-Based Assay for JNK Inhibitors (in-cell ELISA, phospho(Ser63)-c-jun after TNFα)
# Assay Context: HK-2 cells (human proximal tubule cells), 60 minutes compound, then 10 ng/mL TNFα for 30 minutes

# Line Notation, EC50
records = [
    ("COC(=O)c1c(CNC(=O)c2ccc(N3CCOCC3)cc2)c(=O)c2ccc(Cl)cc2n1-c1ccccc1", "2.2 µM"),
    ("O=C(NCc1cn(-c2ccccc2)c2cc(Cl)ccc2c1=O)c1ccc(N2CCS(=O)(=O)CC2)nc1", "12 µM"),
    ("CN1CCCN(c2ccc(C(=O)NCc3cn(-c4ccccc4)c4cc(Cl)ccc4c3=O)cn2)CC1", "19 µM"),
    ("COC(=O)c1c(CNC(=O)c2ccc(-c3noc(C)n3)cc2)c(=O)c2ccc(Cl)cc2n1-c1ccccc1", "18 µM"),
    ("COC1CCN(c2ccc(C(=O)NCc3cn(-c4ccccc4)c4cc(Cl)ccc4c3=O)cn2)CC1", "17 µM"),
    ("CN(C)C(=O)c1c(CNC(=O)c2ccc(N3CCC(CCO)CC3)nc2)c(=O)c2ccc(Cl)cc2n1-c1ccccc1", "9.6 µM"),
    ("COC(=O)c1c(CNC(=O)C2CCN(C(=O)OC(C)(C)C)CC2)c(=O)c2ccc(Cl)cc2n1-c1ccccc1", "100 µM"),
]

###

log10 IC50 reference
# Measured Target: JNK1 (Homo sapiens (Human))
# Assay Protocol: In Vitro JNK1 Assay (TR-FRET, phosphorylation of GST-c-Jun)
# Type: biochemical
# Assay Context: 0.2 nM active JNK1 kinase, 26.7 nM GST-c-Jun, 2 μM ATP, 30 min at room temperature
Measure Name: log10 IC50 (log10 of the value in nM)

# Line Notation, Measured Target, log10 IC50
measured = [
    ("CS(=O)(=O)N1CCC(NC(=O)NCc2cn(-c3ccccc3)c3cc(Cl)ccc3c2=O)CC1", "JNK1 (Homo sapiens (Human))", 3.32),
    ("COC(=O)c1c(CNC(=O)c2ccc(OC)c(OC)c2)c(=O)c2ccc(Cl)cc2n1-c1ccccc1", "JNK1 (Homo sapiens (Human))", 1.59),
    ("O=C(NCc1cn(-c2ccccc2Cl)c2cc(Cl)ccc2c1=O)c1ccc(Br)nc1", "JNK1 (Homo sapiens (Human))", 2.78),
    ("O=C(NCc1cn(-c2ccccc2)c2cc(Cl)ccc2c1=O)c1ccc(Cl)nc1", "JNK1 (Homo sapiens (Human))", 2.63),
    ("COC(=O)c1c(CNC(=O)c2ccc(-c3ncc[nH]3)cc2)c(=O)c2ccc(C(F)(F)F)nc2n1-c1ccccc1", "JNK1 (Homo sapiens (Human))", 1.36),
    ("COc1ccc(C(=O)NCc2c(C(=O)N(C)C)n(-c3ccccc3)c3cc(Cl)ccc3c2=O)cc1", "JNK1 (Homo sapiens (Human))", 1.81),
    ("CS(=O)(=O)C1CCN(c2ncc(C(=O)NCc3cn(-c4ccccc4)c4cc(Cl)ccc4c3=O)s2)CC1", "JNK1 (Homo sapiens (Human))", 1.32),
]

###

# Measured Target: JNK1 (Homo sapiens (Human), UniProt P45983)
# Sequence (P45983 whole entry): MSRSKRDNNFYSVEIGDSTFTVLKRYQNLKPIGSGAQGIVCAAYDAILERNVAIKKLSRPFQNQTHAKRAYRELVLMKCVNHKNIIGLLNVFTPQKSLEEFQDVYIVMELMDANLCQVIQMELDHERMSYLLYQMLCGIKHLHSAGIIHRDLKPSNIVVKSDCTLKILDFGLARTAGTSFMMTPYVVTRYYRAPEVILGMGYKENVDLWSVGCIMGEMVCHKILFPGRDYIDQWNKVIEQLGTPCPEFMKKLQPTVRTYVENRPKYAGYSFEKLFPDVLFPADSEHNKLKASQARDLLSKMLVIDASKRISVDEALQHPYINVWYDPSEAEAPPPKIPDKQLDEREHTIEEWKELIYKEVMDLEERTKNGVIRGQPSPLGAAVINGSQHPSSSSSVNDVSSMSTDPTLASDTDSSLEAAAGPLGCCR
# Assay Protocol: In Vitro JNK1 Assay (TR-FRET, phosphorylation of GST-c-Jun)
# Assay type: biochemical
# Assay Context: 0.2 nM active JNK1 kinase, 26.7 nM GST-c-Jun, 2 μM ATP, 30 min at room temperature
Note to self: IC50 under 60 nM means met, ties and anything higher get not met.

# Line Notation, Assigned Class
records = [
    ("Cn1cc(C(=O)NCc2cn(-c3ccccc3)c3cc(Cl)ccc3c2=O)cn1", "met"),
    ("COC1CCN(c2ccc(C(=O)NCc3cn(-c4ccccc4)c4cc(Cl)ccc4c3=O)cn2)CC1", "met"),
    ("O=C(NCc1cn(-c2ccccc2)c2cc(Cl)ccc2c1=O)c1ccc(N2CCC(CO)CC2)nc1", "met"),
    ("N#C/N=C(/NCc1cn(-c2ccccc2)c2cc(Cl)ccc2c1=O)N1CCOCC1", "not met"),
    ("COC(=O)c1ccc(NC(=O)NCc2cn(-c3ccccc3)c3cc(Cl)ccc3c2=O)cc1", "not met"),
    ("CN1CCN(C(=O)NCc2cn(-c3ccccc3)c3cc(Cl)ccc3c2=O)CC1", "not met"),
    ("CC(=O)N1CCC(NC(=O)NCc2cn(-c3ccccc3)c3cc(Cl)ccc3c2=O)CC1", "not met"),
    ("CC(C)(C)OC(=O)NC1CCN(c2ccc(C(=O)NCc3cn(-c4ccccc4)c4cc(Cl)ccc4c3=O)cn2)CC1", "not met"),
]

###

pIC50 reference
# Measured Target: JNK1 (Homo sapiens (Human), UniProt P45983)
# Assay Protocol: In Vitro JNK1 Assay (TR-FRET, phosphorylation of GST-c-Jun)
# Assay type: biochemical
# Assay Context: 0.2 nM active JNK1 kinase, 26.7 nM GST-c-Jun, 2 μM ATP, 30 min at room temperature
pIC50: −log10 of the molar value.

# Line Notation, pIC50
data = [
    ("CC(C)(C)OC(=O)N1CCC(NC(=O)NCc2cn(-c3ccccc3)c3cc(Cl)ccc3c2=O)CC1", 7.22),
    ("COC(=O)c1c(CNc2nccc3ccccc23)c(=O)c2ccc(Cl)cc2n1-c1ccccc1", 6.96),
    ("CN(C)C1CCN(c2ccc(C(=O)NCc3cn(-c4ccccc4)c4cc(Cl)ccc4c3=O)cn2)CC1", 7.51),
    ("COC(=O)c1c(CNC(=O)c2ccc(N3CCOCC3)nc2)c(=O)c2ccc(Cl)cc2n1-c1ccccc1", 8.22),
    ("O=C(NCc1cn(-c2ccccc2)c2cc(Cl)ccc2c1=O)c1ccc(N2CCCCC2)nc1", 7.72),
    ("COC(=O)c1c(CNC(=O)c2ccc(-c3cnns3)cc2)c(=O)c2ccc(Cl)cc2n1-c1ccccc1", 7.77),
    ("COC(=O)c1c(CNC(=O)c2ccc(F)c(Cl)c2)c(=O)c2ccc(Cl)cc2n1-c1ccccc1", 7.82),
    ("COC(=O)c1c(CNC(=O)c2ccc(C(C)(C)C)cc2)c(=O)c2ccc(OC)cc2n1-c1ccccc1", 7.33),
    ("O=C(NCc1cn(-c2ccccc2)c2cc(Cl)ccc2c1=O)c1ccnc(N2CCCC2)c1", 7.42),
    ("COC(=O)c1c(CNC(=O)C2CCN(C(=O)OC(C)(C)C)CC2)c(=O)c2ccc(Cl)cc2n1-c1ccccc1", 7.46),
    ("O=C(NCc1cn(-c2ccccc2)c2cc(Cl)ccc2c1=O)c1cnc(N2CCOCC2)nc1", 6.72),
    ("CN(C)C(=O)c1c(CNC(=O)c2ccc(N3CCC(CCO)CC3)nc2)c(=O)c2ccc(Cl)cc2n1-c1ccccc1", 7.29),
    ("COC(=O)c1c(CNC(=O)c2ccc(S(N)(=O)=O)cc2)c(=O)c2ccc(C(F)(F)F)nc2n1-c1ccccc1", 7.59),
    ("O=C(NCc1cn(-c2ccccc2)c2cc(Cl)ccc2c1=O)N1CCCC1", 5.92),
    ("O=C(NCc1cn(-c2ccccc2)c2cc(Cl)ccc2c1=O)c1ccc(N2CC[C@H](O)C2)nc1", 6.92),
]
